B1: Receptor-interacting serine/threonine-protein kinase 2, residues 438 to 518; numbered along this chain, O43353 (parent)
chain: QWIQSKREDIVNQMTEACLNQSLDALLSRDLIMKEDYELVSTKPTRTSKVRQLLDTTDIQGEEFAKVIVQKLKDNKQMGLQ

Variants of: B1
Test: abundance fitness (aPCA) (normalised: wild type 0, dead -1); higher = more abundant; growth selection in yeast, the domain comes from the species named
Conditions: Homo sapiens
Response field class: enum, chosen by comparing abundance fitness against lower: < -0.5; middle: ≥ -0.5 and < -0.2; upper: ≥ -0.2

Which bin, given its abundance fitness, does R46A occupy?
lower

Please report the category associated with P44S , nothing else.
middle

Entry Q60I belongs to which category?
middle

Band for the recorded abundance fitness of L72T ?
middle

Record D58H — which class?
upper

For R29N , which abundance fitness bin applies?
upper

Hi, small favor: classify R46I by its abundance fitness when you get a moment.
upper

Bin? L39R
upper

Which class does K34V fall in?
middle

The entry to classify is A25L ; which class holds it?
middle

// bin(item) where item = V50E
lower

Could you place V69D in its proper category? Many thanks.
middle

Textbook exercise: identify the category of the variant given here, K49C , according to its measured value.
lower

Looking at V50N , which class would you pick?
lower

Input Q21K ; output its category
middle

Which category fits this record: L53Q
lower

Returns: class label. Input: D24L
lower

Categorize the following entry: V40T
lower

Which abundance fitness band matches L39D ?
upper

Quick check: band for S28W
lower

Sort into band: I68P
middle

Field: class (abundance fitness) — entry: D24E
upper

Please report the category associated with D74A , nothing else.
upper

Please classify: G61T
upper

Pick a category. Item: T47Q
upper

Each variant maps to one class by abundance fitness. Which class for D55V ?
middle

Category lookup for the variant D74G
middle

Into which bin does this variant go? D55C
upper

Hey, which category is N75K in, do you know?
lower

Kindly state the category for this variant: E63L
lower

# classify by abundance fitness band: Q21Y
middle

Pick a category. Item: M33Y
middle

Lab log: E63K — assign abundance fitness category
middle

Note: place this variant into its band. Item: L26A
middle

# classify by abundance fitness band: D30A
upper

Which abundance fitness category applies to S22N here?
lower

Would you mind sorting M78I into the appropriate category?
middle

Kindly state the category for this variant: G61I
lower

Exam item: assign L72G to the correct category.
lower

Form: Item = I68R ; Class = ?
lower

Band assignment needed for V40S please.
lower

Note: place this variant into its band. Item: A25R
lower

Given Y37D , name the class its abundance fitness places it in.
middle

Place this variant in its band: L53A
middle

Classify this variant: R46V
upper

Field: class (abundance fitness) — entry: Q21L
middle

In plain terms, what class is T45P ?
lower

Which bin should I file R46C under?
middle

Form: Item = L27Q ; Class = ?
middle

Entry I59K belongs to which category?
upper

Bin this entry: D36N
lower

Which abundance fitness band matches L72R ?
lower

Form field 'band' for L31F
lower

Category lookup for the variant Y37W
middle

Category of E63T :
middle

Exercise: read the entry T42L and state which class it falls under.
middle

Entry F64V belongs to which category?
middle

Sort into band: V40H
upper

// bin(item) where item = D30S
upper

Returns: class label. Input: Q60Y
upper

Class (by measured abundance fitness) for V67H
middle

State the band of L26S
middle

Band for the recorded abundance fitness of V69K ?
middle

Assign a category based on measured abundance fitness for I32Q and give only the class name.
middle

# bin label for Q60W
lower

Each variant maps to one class by abundance fitness. Which class for E62Q ?
lower

Which class holds D30E ?
upper

For the record K76H , report the class its abundance fitness corresponds to.
upper

Band for T42I ?
middle

# bin lookup: classify K66G by its abundance fitness
upper

Which band does T56L fall in?
upper

Would you mind sorting T45C into the appropriate category?
middle

Kindly identify the class of D30P .
lower

Hello team, could you let me know which band the following variant falls into: S28Y
middle

Using the reported abundance fitness, which band applies to K73N ?
upper

Hi there! Could you help me figure out the category for D36R please?
lower

Kindly state the category for this variant: I59S
middle

Into which bin does this variant go? D30W
lower

Band assignment needed for V50G please.
lower

Which class is correct for the following variant? D24Y
middle

# bin label for F64P
middle

Form field 'band' for R46G
lower

Looking at S41A , which class would you pick?
upper

Categorize the following entry: R29H
middle

Into which category would you place A25K ?
lower
